Where do these numbers come from? They come from ChEMBL document CHEMBL4699601.

assay: Tmax in C57BL6 mouse brain at 10 mg/kg, po measured up to 24 hrs; type: ADME, organism-based
OUTCOME MEASURE: Tmax (min)
The response must be a number in min with no trailing unit.

Lookup: Query: Tmax; subject: Oc1nnc(-c2ccc(Cl)c(C(F)(F)F)c2)o1
Found: 10.2

====

experiment: Half life in C57BL6 mouse plasma at 10 mg/kg, po measured up to 24 hrs; format: ADME, organism-based
OUTCOME MEASURE: half-life (h)
The response must be a number in h with no trailing unit.

Lookup: Query: half-life; subject: Oc1nnc(-c2ccc(Cl)c(C(F)(F)F)c2)o1
Found: 3.7

====

test: Unbound brain-to-plasma concentration ratio in C57BL6 mouse plasma at 10 mg/kg, po measured up to 24 hrs; type: ADME, organism-based; conditions: brain and plasma, read-out: K(p,uu,brain)
OUTCOME MEASURE: Kp uu at 24 h

Lookup: Query: Kp uu at 24 h; subject: Oc1nnc(-c2ccc(Cl)c(C(F)(F)F)c2)o1
Found: 0.025

====

experiment: AUC (0 to t) in C57BL6 mouse plasma at 10 mg/kg, po measured up to 24 hrs; format: ADME, organism-based; parameters: route oral, dose 10 mg/kg, time <=24
OUTCOME MEASURE: AUC(0-t) at 24 h (ng·h/mL)
The response must be a number in ng·h/mL with no trailing unit.

Lookup: Query: AUC(0-t) at 24 h; subject: Oc1nnc(-c2ccc(Cl)c(C(F)(F)F)c2)o1
Found: 50400

====

Reported values of Papp B→A for individual entries
assay: in vitro; conditions: dog, MDCK-MDR1
The response must be a number in ×10⁻⁶ cm/s with no trailing unit.

Oc1nnc(-c2ccc(Cl)c(C(F)(F)F)c2)s1 | 70

Lookup: Query: Papp B→A; subject: Oc1nnc(-c2ccc(Cl)c(C(F)(F)F)c2)o1
Found: 55

====

experiment: Half life in C57BL6 mouse brain at 10 mg/kg, po measured up to 24 hrs; format: ADME, organism-based
OUTCOME MEASURE: half-life (h)
The response must be a number in h with no trailing unit.

Lookup: Query: half-life; subject: Oc1nnc(-c2ccc(Cl)c(C(F)(F)F)c2)o1
Found: 2.3

====

test: AUC (0 to infinity) in C57BL6 mouse plasma at 10 mg/kg, po measured up to 24 hrs; type: ADME, organism-based; design: route oral, dose 10 mg/kg, time <=24
OUTCOME MEASURE: AUC(0-inf) (ng·h/mL)
The response must be a number in ng·h/mL with no trailing unit.

Lookup: Query: AUC(0-inf); subject: Oc1nnc(-c2ccc(Cl)c(C(F)(F)F)c2)o1
Found: 63100

====

experiment: Cmax in C57BL6 mouse brain at 10 mg/kg, po measured up to 24 hrs; assay type: ADME, organism-based; set-up: route oral, dose 10 mg/kg, time <=24
OUTCOME MEASURE: Cmax (ng/g)
The response must be a number in ng/g with no trailing unit.

Lookup: Query: Cmax; subject: Oc1nnc(-c2ccc(Cl)c(C(F)(F)F)c2)o1
Found: 2990
